B1: KLHDC10 (parent)
chain: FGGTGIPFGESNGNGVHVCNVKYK

Variants of: B1
assay.method.text: protein stability index of a GFP-peptide fusion (GPS, HEK-293T) (PSI 1-6); higher = more stable;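 further: lentivirally expressed fusions sorted by FACS into six bins by GFP to DsRed ratio, PSI derived from sequencing read proportions per bin multiplied by bin number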
assay.context: c terminus: a fixed tail appended
recorded.metric: protein stability index
Note: the reply should be a number with no unit written.

G3K	2.32
G15F	1.49
K22G	1.98
N14M	1.99
H17K	2.01

Q: Fill blank: measured protein stability index of the variant `Y23I` is ____.
A: 2.38

Q: And the next one, `G2D` ?
A: 3.46

Q: Now consider `G15S` .
A: 2.14

Q: Also check `H17E`
A: 2.48

Q: Repeat with `I6W`
A: 2.27

Q: Could you do the same for `G2K` , please?
A: 3.55
